System: PC-3 prostate adenocarcinoma cells
test details: MTT cell viability assay, PC-3
experimental setup: PC-3 versus NHDF, 72 h
Procedure: To evaluate the anticancer potential of monomethine cyanine dyes 1–12, a cell proliferation study was conducted using the 3-(4,5-dimethylthiazol-2-yl)-2,5-diphenyltetrazolium bromide (MTT) assay. For this preliminary evaluation, a concentration of 10 µM for each dye was tested, with the well-established chemotherapy agent 5-fluorouracil (5-FU) serving as a positive control. […]
In this section, each of the compounds is paired with its reported SI PC-3 (selectivity index versus NHDF).
Just the number, please, no unit after it.

| compound | reported measurement |
| --- | --- |
| CN1C(=Cc2n(C)c3ccccc3[n+]2C)Sc2ccccc21.[I-] [Dye 4] | 2.8 |
| O=c1[nH]cc(F)c(=O)[nH]1 [5-FU, 5-fluorouracil, reference compound] | 1.9 |
| CN1C(=Cc2oc3ccccc3[n+]2C)C=Cc2ccccc21.Cc1ccc(S(=O)(=O)[O-])cc1 [Dye 5] | 1.9 |
| CCN1C(=Cc2sc3cc([N+](=O)[O-])ccc3[n+]2CC)Sc2ccccc21.Cc1ccc(S(=O)(=O)[O-])cc1 [Dye 10] | 3.8 |
| CCN1C(=Cc2sc3cc(N)ccc3[n+]2CC)Sc2ccccc21.[I-] [Dye 11] | 1.4 |
| CCN1C(=Cc2sc3ccc(NC(C)=O)cc3[n+]2CC)Sc2ccccc21.Cc1ccc(S(=O)(=O)[O-])cc1 [Dye 7] | 3.3 |

With those in mind, consider the next compound.
Q. What does the data say about its SI PC-3 (selectivity index versus NHDF)? Entry: CN1C(=Cc2sc3ccccc3[n+]2C)Oc2ccccc21.Cc1ccc(S(=O)(=O)[O-])cc1 [Dye 3]
A. 17.2

* * *

Quick reference: selectivity ratio at 72 h of the listed items.
test details: MTT cell viability assay, Caco-2
experimental setup: human, Caco-2
Answer using only a numeral; do not append any unit.

| compound | selectivity ratio at 72 h |
| --- | --- |
| O=c1[nH]cc(F)c(=O)[nH]1 [5-FU, 5-fluorouracil, reference compound] | 4.1 |

Now let's try a different one.
Q. Form field: reported selectivity ratio at 72 h of CN1C=C/C(=C/c2ccc3ccccc3[n+]2C)c2ccccc21 [Dye 12]
A. 0.9

* * *

Measured SI MCF-7 (selectivity index versus NHDF), listed per entry for reference.
Tested on: MCF-7 breast adenocarcinoma cells
test details: MTT cell viability assay, MCF-7
experimental setup: MCF-7 versus NHDF, 72 h
Number only, please.

# annotated cases, reported SI MCF-7 (selectivity index versus NHDF) shown
| molecule | reported measurement |
| --- | --- |
| CCN1C(=Cc2sc3cc(N)ccc3[n+]2CC)Sc2ccccc21.[I-] | 9.0 |
| CCN1C(=Cc2sc3cc([N+](=O)[O-])ccc3[n+]2CC)Sc2ccccc21.Cc1ccc(S(=O)(=O)[O-])cc1 | 1.7 |
| O=c1[nH]cc(F)c(=O)[nH]1 [5-FU, 5-fluorouracil, reference compound] | 2.1 |
| CN1C(=Cc2oc3ccccc3[n+]2C)C=Cc2ccccc21.Cc1ccc(S(=O)(=O)[O-])cc1 | 0.7 |

Next molecule, SI MCF-7 (selectivity index versus NHDF) to be filled in.
Q. Tell me reported SI MCF-7 (selectivity index versus NHDF) for CCN1C(=Cc2sc3ccc(NC(C)=O)cc3[n+]2CC)Sc2ccccc21.Cc1ccc(S(=O)(=O)[O-])cc1 , tested with MCF-7 breast adenocarcinoma cells.
A. 30.2

Data provenance: paper PMC11642940
